System: HMLE_sh_eGFP viability, CellTiter-Glo luminescence, 72 h
METHOD: cytotoxicity in HMLE control line with eGFP shRNA, dose response, counter-screen for HMLE_sh_ECad selective toxicity project, cell-based, HMLE_sh_eGFP, luminescence (AID 463074);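 also: counterscreen control line to flag general toxicity for the HMLE_sh_ECad screen; potency for loss of viability as luminescence drops below DMSO wells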
PROPERTY: AC50

Ask: I would be grateful if you could share the reported AC50 for `CC(C)(C)c1cc(-c2nc(N)nc(N)n2)c(O)c(C(C)(C)C)c1` .
Reply: 3.57 µM

Ask: I would be grateful if you could share the reported AC50 for `Cc1nc(Nc2nc(CSc3nc4ccccc4[nH]3)cc(=O)[nH]2)nc2ccccc12` .
Reply: 2.69 µM

Ask: I would be grateful if you could share the reported AC50 for `COC(=O)c1c(NC(=O)/C=C/c2ccc3c(c2)OCO3)sc(C)c1C` .
Reply: 1.7 µM

Ask: I would be grateful if you could share the reported AC50 for `COc1ccc2sc(-c3ccccc3OC)c(-c3ccc(OCCN4CCCC4)cc3)c2c1` .
Reply: 3.74 µM

Ask: I would be grateful if you could share the reported AC50 for `COc1ccc(C(C)(C)C)cc1NC(=O)Nc1ccc2c(c1)OCO2` .
Reply: 8.21 µM

Ask: I would be grateful if you could share the reported AC50 for `COC(=O)c1ccc(/C=C/c2c(-c3ccsc3)oc3ccc(N4CCOCC4)cc23)cc1` .
Reply: 6.37 µM

Ask: I would be grateful if you could share the reported AC50 for `Cc1cc(N2CCN(C)CC2)nc2ccc(NC(=S)N3CCN(c4ccc(F)cc4)CC3)cc12` .
Reply: 5.94 µM

Ask: I would be grateful if you could share the reported AC50 for `Cc1ccc([N+](=O)[O-])cc1N(CC(=O)Nc1ccc(S(=O)(=O)Nc2cccc(C(F)(F)F)c2)cc1)S(C)(=O)=O` .
Reply: 4.67 µM

Ask: I would be grateful if you could share the reported AC50 for `CCOC(=O)c1cc(-c2cccs2)nc2c1c(C)nn2-c1ccccn1` .
Reply: 11.8 µM

* * *

Test system: HMLE_sh_eGFP viability, CellTiter-Glo luminescence, 72 h
METHOD: cytotoxicity in HMLE control line with eGFP shRNA, dose response, counter-screen for HMLE_sh_ECad selective toxicity project, cell-based, HMLE_sh_eGFP, luminescence (AID 463074)
Calls of active or inactive are those of the source.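 The calls were made as follows: active = AC50 no more than tenfold above the top dose tested, or full inhibition at every dose with a flat fit (cut at about 19 µM in these data); inconclusive = flat curve fit with inhibition between 30% and 70%, or poor fit; inactive = AC50 more than tenfold above the top dose tested.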
// one of active, inactive, no free text

Ask: // outcome(item) with item = Cc1cccc(NC(=S)NCC(C)CSc2ccc(Cl)cc2)c1 (stereo unspecified)
Reply: active

Ask: // outcome(item) with item = `Cc1cc(C)cc(N2C(=O)NC(=O)/C(=C/c3cccn3-c3ccc(Cl)cc3)C2=O)c1`
Reply: active

Ask: // outcome(item) with item = `O=C(N/N=C/c1ccc[nH]1)c1sc2ccccc2c1Cl`
Reply: active

Ask: // outcome(item) with item = `c1ccc(N(c2ccccc2)c2nc(N3CCCC3)nc(-n3ccnc3)n2)cc1`
Reply: active

Ask: // outcome(item) with item = `COCCNC(=O)CN(C(=O)CCC(=O)Nc1ccccn1)c1ccc(C)cc1`
Reply: inactive

Ask: // outcome(item) with item = `Cc1cccc(NS(=O)(=O)c2ccc(C3CCCCC3)cc2)c1`
Reply: active

* * *

Tested on: HMLE_sh_eGFP viability, CellTiter-Glo luminescence, 72 h
METHOD: cytotoxicity in HMLE control line with eGFP shRNA, dose response, counter-screen for HMLE_sh_ECad selective toxicity project, cell-based, HMLE_sh_eGFP, luminescence (AID 463074)
PROPERTY: AC50

Ask: I would be grateful if you could share the reported AC50 for `CC(=O)c1ccc(-c2cc([C@H]3[C@H]4C=CC[C@@H](C)[C@@H]4C(=O)N3Cc3ccccc3)ccc2F)cc1` .
Reply: 6.87 µM

Ask: I would be grateful if you could share the reported AC50 for `Cc1ccc(S(=O)(=O)Nc2ccc3c(c2)CC(=O)N([C@H](C)CO)C[C@@H](C)[C@H](CN(C)Cc2ccc(-c4ccccc4)cc2)O3)cc1` .
Reply: 2.29 µM

Ask: I would be grateful if you could share the reported AC50 for `COc1ccc(-c2cc(C(F)(F)F)nc(S(C)(=O)=O)n2)cc1` .
Reply: 3.56 µM

Ask: I would be grateful if you could share the reported AC50 for `CCCCn1c(=O)c(C(=O)NCc2ccc(Cl)cc2)c(O)c2ccccc21` .
Reply: 7.8 µM

* * *

System: HMLE_sh_eGFP viability, CellTiter-Glo luminescence, 72 h
METHOD: cytotoxicity in HMLE control line with eGFP shRNA, dose response, counter-screen for HMLE_sh_ECad selective toxicity project, cell-based, HMLE_sh_eGFP, luminescence (AID 463074);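 also: counterscreen control line to flag general toxicity for the HMLE_sh_ECad screen; potency for loss of viability as luminescence drops below DMSO wells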
PROPERTY: AC50

Ask: I would be grateful if you could share the reported AC50 for `Sc1nnc(-c2ccc(Cl)cc2)n1Cc1ccccc1` .
Reply: 8.62 µM

Ask: I would be grateful if you could share the reported AC50 for `CN(CC(=O)Nc1ccc(Cl)c(Cl)c1)CC(=O)Nc1ccc2c(c1)OCO2` .
Reply: 17.2 µM

Ask: I would be grateful if you could share the reported AC50 for `O=C(Nc1nnc(-c2ccc(Cl)cc2)o1)c1nc2ccccc2s1` .
Reply: 5.29 µM

* * *

Test system: HMLE_sh_eGFP viability, CellTiter-Glo luminescence, 72 h
METHOD: cytotoxicity in HMLE control line with eGFP shRNA, dose response, counter-screen for HMLE_sh_ECad selective toxicity project, cell-based, HMLE_sh_eGFP, luminescence (AID 463074);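 also: counterscreen control line to flag general toxicity for the HMLE_sh_ECad screen; potency for loss of viability as luminescence drops below DMSO wells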
PROPERTY: AC50

Ask: I would be grateful if you could share the reported AC50 for NC(=O)CC(NC(=O)Cc1ccc(Br)cc1)c1ccc(NC2CC3CCC2C3)c([N+](=O)[O-])c1 (configuration not stated) .
Reply: 6.74 µM

Ask: I would be grateful if you could share the reported AC50 for `COc1ccc(OC)c(-c2cc(-c3cccnc3)nc(N)c2C#N)c1` .
Reply: 1.95 µM

Ask: I would be grateful if you could share the reported AC50 for `CCCCCCc1cc2cc(-c3nnc(-c4cc(OC)c(OC)c(OC)c4)o3)c(=O)oc2cc1O` .
Reply: 5.89 µM

Ask: I would be grateful if you could share the reported AC50 for `CCc1cc2cccc(C)c2nc1SCC(=O)c1ccc(NC(C)=O)cc1` .
Reply: 4.62 µM

Ask: I would be grateful if you could share the reported AC50 for `O=c1cc(N2CCCCC2)c(-c2ccccc2)nn1Cc1cccc(F)c1` .
Reply: 5.13 µM

Ask: I would be grateful if you could share the reported AC50 for `C=CCn1c(CNc2ccc(C)cc2)nnc1SCC(=O)N/N=C/c1ccc(O)cc1O` .
Reply: 2.97 µM

Ask: I would be grateful if you could share the reported AC50 for `O=C(NCc1ccco1)c1cc(-c2ccc3c(c2)OCO3)on1` .
Reply: 0.973 µM

* * *

Test system: HMLE_sh_eGFP viability, CellTiter-Glo luminescence, 72 h
METHOD: cytotoxicity in HMLE control line with eGFP shRNA, dose response, counter-screen for HMLE_sh_ECad selective toxicity project, cell-based, HMLE_sh_eGFP, luminescence (AID 463074);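 also: counterscreen control line to flag general toxicity for the HMLE_sh_ECad screen; potency for loss of viability as luminescence drops below DMSO wells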
The source made the active and inactive calls.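 How the source made its calls: active means AC50 no more than tenfold above the top dose tested, or full inhibition at every dose with a flat fit (cut at about 19 µM in these data); inconclusive means flat curve fit with inhibition between 30% and 70%, or poor fit; inactive means AC50 more than tenfold above the top dose tested.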
// one of 1.0 = active, 0.0 = inactive, no free text

Ask: // outcome(item) with item = `O=c1c2c3c(sc2nc(NCCO)n1Cc1ccco1)CCCCC3`
Reply: 1.0

Ask: // outcome(item) with item = `O=C(NC12CC3CC(CC(C3)C1)C2)c1ccc([N+](=O)[O-])o1`
Reply: 1.0

Ask: // outcome(item) with item = `COc1cccc(-c2ccc(C#N)c(OC(=O)c3c(Cl)cccc3Cl)n2)c1`
Reply: 1.0

Ask: // outcome(item) with item = `N#Cc1c(-c2ccccc2)c(-c2ccccc2)nn(CC(=O)NNC(=O)Nc2ccc(Cl)c(Cl)c2)c1=O`
Reply: 1.0

Ask: // outcome(item) with item = `Oc1ccc(-c2cc(-c3ccc(O)cc3)nc(-c3ccccc3)n2)cc1`
Reply: 1.0

Ask: // outcome(item) with item = `O=c1c2ccccc2nc2n1C1(CCCCC1)Cc1ccccc1-2`
Reply: 1.0

Ask: // outcome(item) with item = `O=[N+]([O-])c1ccc(/C=N/n2cnc3ccccc32)s1`
Reply: 1.0

Ask: // outcome(item) with item = CC1CCCN(c2ccc(C(=O)N3CCC4(CC3)OCCO4)cc2[N+](=O)[O-])C1 (centres undefined)
Reply: 1.0

Ask: // outcome(item) with item = `C/C(=N\Nc1ccccc1)c1c(O)n(Cc2ccccc2)c(=O)[nH]c1=O`
Reply: 1.0

Ask: // outcome(item) with item = `Cc1cc(N/N=C/c2ccccc2Cl)nc(NCc2ccccc2)n1`
Reply: 1.0

Ask: // outcome(item) with item = `COc1ccc(Cn2c3ccc(OC)cc3c3nc4ccccc4nc32)cc1`
Reply: 1.0

Ask: // outcome(item) with item = `CCN(CC)c1nc(SCCOC(=O)Nc2ccccc2)nc(N(CC)CC)n1`
Reply: 1.0

Ask: // outcome(item) with item = `COc1ccc2sc(-c3ccc(N(C)C)cc3)c(-c3ccc4cc[nH]c4c3)c2c1`
Reply: 1.0

Ask: // outcome(item) with item = `CCCc1cc(-c2nc(-c3ccc(C)cc3)cs2)ccn1`
Reply: 1.0

Ask: // outcome(item) with item = CC(C(=O)O)N1C(=O)CSc2ncccc21 (centres undefined)
Reply: 0.0

Ask: // outcome(item) with item = `C=CCn1c2ccccc2c(=O)c2cc(C#Cc3cc(OC)cc(OC)c3)ccc21`
Reply: 1.0

Ask: // outcome(item) with item = `CCCCOc1ccc(S(=O)(=O)N2CCN(c3ccc(N4CCN(CC)CC4)nn3)CC2)cc1`
Reply: 1.0

Ask: // outcome(item) with item = `COc1ccc(-c2cn(CCc3c[nH]c4ccccc34)nn2)cc1`
Reply: 1.0

Ask: // outcome(item) with item = `CCNc1nc(Oc2c(Cl)cccc2Cl)cc(C(F)(F)F)n1`
Reply: 1.0

Ask: // outcome(item) with item = `O=C(NCc1nc(-c2ccc(C(F)(F)F)cc2)no1)Nc1cc(Cl)cc(Cl)c1`
Reply: 1.0

Ask: // outcome(item) with item = `C=CCn1c(SCC(=O)c2[nH]c(C)c(C(=O)OCC)c2C)nc2scc(-c3ccc(OC)c(OC)c3)c2c1=O`
Reply: 1.0

Ask: // outcome(item) with item = `O=[N+]([O-])c1ccc(-c2nc(Nc3cccc(O)c3)c3ccccc3n2)cc1`
Reply: 1.0

Ask: // outcome(item) with item = `CC(C)(C)c1ccc(C(=O)Nc2ccc(N3CCOCC3)cc2)cc1`
Reply: 1.0

Ask: // outcome(item) with item = `Cc1noc(C)c1COc1cccc(C(=O)Nc2ccc(OCc3ccccc3)cc2)c1`
Reply: 1.0
